experiment: in vitro; settings: Beagle, dog, plasma
measurement-type: fraction unbound at 5 h

INSERT INTO results (compound, readout_number) VALUES
  ('OCc1cc(C(O)CNCCCCCCOCCCCc2ccccc2)ccc1O (stereo not drawn)', 0.0179),
  ('N#Cc1ccc2ccc(=O)n(CCN3CC[C@@H](NCc4cc5c(cn4)OCCO5)[C@@H](O)C3)c2c1', 0.602),
  ('O=C(N[C@@H]1COc2cccc(-c3ccc(CO)nc3)c2C1)c1ccc(OCC(F)(F)F)nc1', 0.0477),
  ('N#Cc1ccccc1C[C@@H](C(=O)O)N1CCC(CN2CCC(Oc3ccc(Cl)c(Cl)c3)CC2)CC1', 0.0661),
  ('CC(C)C[C@H](CO)Nc1nc(S[C@@H](C)c2ccccc2)nc2[nH]c(=O)sc12', 0.0019),
  ('CC(C)(N)C(=O)N[C@H](COCc1ccc(F)cc1F)C(=O)N1CCC2=NN(CC(F)(F)F)C(=O)[C@]2(Cc2ccccn2)C1', 0.454),
  ('Nc1[nH]ncc1-c1cc(Cl)ccc1Oc1cc(F)c(S(=O)(=O)Nc2cscn2)cc1Cl', 0.0048),
  ('CCCNC(=O)NS(=O)(=O)c1ccc(Cl)cc1 [CHLORPROPAMIDE]', 0.142);

###

assay: physchem; details: pH 7.4 buffer
Outcome: Met for solubility thermodynamic of at least 60 µM; Not met for anything lower.

INSERT INTO assay_data (molecular_string, class_name) VALUES
  ('Cc1c(Cl)cccc1S(=O)(=O)Nc1nc(CC(=O)N2CCN(C)CC2)cs1', 'Met'),
  ('COc1cc2ncnc(Nc3ccc(Br)cc3F)c2cc1OC', 'Not met'),
  ('CCn1cc(NC(=O)Cc2ccc(Oc3ccnc4cc(OC)c(OC)cc34)cn2)cn1', 'Not met'),
  ('CS(=O)(=O)c1cccc(CNc2nc(Nc3ccc4c(c3)CCC(=O)N4)ncc2C(F)(F)F)c1', 'Not met'),
  ('COc1cc(Nc2nccc(N(C)c3cc(CO)ccc3C)n2)cc(N2CCOCC2)c1', 'Not met');

###

assay: in vitro; conditions: human, liver microsomes
Overview of reported log10(microsomal CLint) across a group of molecules:
measurement-type: log10(microsomal CLint) (log10 of the value in µL/min/mg)

INSERT INTO measurements (molecule, readout_number) VALUES
  ('CCCS(=O)(=O)N1N=Cc2cc(Cl)ccc2B1O', 0.99),
  ('CNC(=O)c1nc(-c2ccc(Cl)c(S(=O)(=O)Nc3cccc(F)c3F)c2)cnc1N', 1.71),
  ('O=C(Nc1ncc(F)s1)C(CC1CCOCC1)c1ccc(S(=O)(=O)C2CC2)cc1 (stereo not drawn)', 1.52),
  ('N#CC1(NC(=O)[C@@H]2CCCC[C@H]2C(=O)N2CCc3[nH]c4ccc(F)cc4c3C2)CC1', 1.10),
  ('O=c1[nH]c2c(O)ccc([C@@H](O)CNCCCSCCNCCc3cccc(Cl)c3)c2s1', 1.30),
  ('C[C@H](CO)Nc1nc(SCc2cccc(F)c2F)nc2[nH]c(=O)ccc12', 0.95),
  ('O=C(Nc1cccc(-c2nnn[nH]2)c1)c1cc(C(F)(F)F)cc2[nH]cnc12', 0.65),
  ('Cc1ccc(C(=O)Nc2nccs2)cc1-n1cnc2ccc(N3CCN(C)CC3)cc2c1=O', 0.85),
  ('COc1ccc(-c2ccc3nc(N)sc3c2)cn1', 0.89),
  ('Cc1cc(CCCOc2c(C)cc(-c3noc(C(F)(F)F)n3)cc2C)on1', 1.16),
  ('O=C(O)c1ccccc1N1CCC(CN2CCC(Oc3ccc(Cl)c(Cl)c3)CC2)CC1', 0.90),
  ('O=C(NCCCCCCNCCc1ccc(O)c2nc(O)sc12)Nc1ccccc1', 1.04),
  ('CC[C@H](CO)Nc1nc(SCc2ccccc2)nc2nc(N)sc12', 0.94);
